Value source: patent US20230002494A1

experimentalSystem: T1, human PD-L1 (full-length, on cells) (human, UniProt Q9NZQ7 19-290)
T1 construct: whole, on cells; Expressed on CHO-s cells; also called human PD-L1-CHO; PD-L1-CHO
T1 sequence (Q9NZQ7 19-290): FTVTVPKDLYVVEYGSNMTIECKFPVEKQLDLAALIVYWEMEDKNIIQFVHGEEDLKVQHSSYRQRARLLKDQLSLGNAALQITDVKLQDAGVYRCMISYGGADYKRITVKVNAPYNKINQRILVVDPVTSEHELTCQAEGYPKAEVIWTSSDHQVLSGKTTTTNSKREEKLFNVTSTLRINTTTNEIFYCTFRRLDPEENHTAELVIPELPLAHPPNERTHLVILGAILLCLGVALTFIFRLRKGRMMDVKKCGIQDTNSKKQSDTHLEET
testName: FACS, human PD-L1-CHO cells
readoutName: EC50 (µg/mL)
One number for each entry, in µg/mL.

Examples with answers:
Prompt: Recall and state the measured EC50 for NB22D-21-8 VHH-Fc chimeric antibody protein (Fc fusion, not shown: human IgG1 Fc fragment, its N-terminus linked to the C-terminus of the VHH) EVQLVESGGGLVQPGGSLRLSCAASRTYSNIYGMHWYRQAPGKGREWVGTIFIGSNTIVTDSVKGRFTISRDNAKNTLYLQMNTLRAEDTAVYYCAADVSGYGRAWGQGTTVTVSS .
Response: 0.26

Prompt: Recall and state the measured EC50 for NB22D-21-huVH2 (Fc fusion, not shown: a dimerising Fc or GST, Humanized form of NB22D-21; also called humanized antibody NB22D-21-huVH2; D21-Vh2) EVQLVESGGGLVQPGGSLRLSCAASRTDSNINGMHWYRQAPGKGREWVGTIFIDGNTIVTDSVKGRFTISRDNAKNTLYLQMNTLRAEDTAVYYCAADVSGYGRAWGQGTTVTVSS .
Response: 0.72

Prompt: Recall and state the measured EC50 for NB22D-21-17 VHH-Fc chimeric antibody protein (Fc fusion, not shown: human IgG1 Fc fragment, its N-terminus linked to the C-terminus of the VHH) EVQLVESGGGLVQPGGSLRLSCAASRTGSNIYGMHWYRQAPGKGREWVGTIFIDWNTIVTDSVKGRFTISRDNAKNTLYLQMNTLRAEDTAVYYCAADVSGYGRAWGQGTTVTVSS .
Response: 1.73

Batch: EC50 for all items listed.
1. NB22D-21-4 VHH-Fc chimeric antibody protein (Fc fusion, not shown: human IgG1 Fc fragment, its N-terminus linked to the C-terminus of the VHH) EVQLVESGGGLVQPGGSLRLSCAASRTDRNINTMHWYRQAPGKGREWVGTIFIDLNTIVTDSVKGRFTISRDNAKNTLYLQMNTLRAEDTAVYYCAADVSGYGRAWGQGTTVTVSS
2. NB22D-21-24 VHH-Fc chimeric antibody protein (Fc fusion, not shown: human IgG1 Fc fragment, its N-terminus linked to the C-terminus of the VHH) EVQLVESGGGLVQPGGSLRLSCAASRTFSNIFGMHWYRQAPGKGREWVGTIFITGNTIVTDSVKGRFTISRDNAKNTLYLQMNTLRAEDTAVYYCAADVSGYGRAWGQGTTVTVSS

Response:
1: 0.21; 2: 0.14
